# study_system: DUSP5 PD (Homo sapiens, UniProt Q16690)
# Sequence (Q16690 178-319 limits assumed): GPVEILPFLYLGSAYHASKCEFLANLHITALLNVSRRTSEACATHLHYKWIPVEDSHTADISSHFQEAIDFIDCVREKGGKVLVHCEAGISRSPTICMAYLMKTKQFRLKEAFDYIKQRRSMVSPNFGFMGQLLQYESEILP
# protocol_details: Spectral analysis of other xanthene dyes binding to DUSP5 PD protein
# condition: 4 μM compound, 4 μM protein, with 1 mM DTT
measurement_label: spectral shift upon addition of DUSP5 PD protein

| item_smiles | recorded_result |
| --- | --- |
| O=C1OC2(c3cc(Cl)c(O)cc3Oc3cc(O)c(Cl)cc32)c2ccccc21 | no spectral differences |
| O=C1OC2(c3ccccc31)c1cc(Br)c(O)c(Br)c1Oc1c2cc(Br)c(O)c1Br | not diminished |
| O=C1OC2(c3ccccc31)c1cc(I)c(O)c(I)c1Oc1c2cc(I)c(O)c1I | not diminished |
| O=C1OC2(c3ccc(O)cc3Oc3cc(O)ccc32)c2ccccc21 | no spectral differences |
